binders and their reported pKd
Target: T1, cyno TIGIT-Fc (cynomolgus monkey)
T1 construct: not shown: Fc part
T1 sequence (chain, as listed by the source limits assumed): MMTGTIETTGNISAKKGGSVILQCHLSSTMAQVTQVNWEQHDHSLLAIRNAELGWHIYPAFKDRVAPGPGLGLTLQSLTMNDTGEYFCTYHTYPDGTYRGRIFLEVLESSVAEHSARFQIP
Experiment: BLI (ForteBio), IgG on sensor, avid
API: returns pKd as number; meaning -log10 of concentration in mol/L.

# example entries with known answers
{"binder": "Clone 16E (antibody, V domains shown) VH: QVQLVQSGAEVKKPGSSVKVSCKASGGTFSDYPISWVRQAPGQGLEWMGGIIPIVGGANYAQKFQGRVTITADESTSTAYMELSSLRSEDTAVYYCARQSTWHKVYGTDVWGQGTTVTVSS VL: DIQMTQSPSSVSASVGDRVTITCRASQGISSWLAWYQQKPGKAPKLLIYAASSLQSGVPSRFSGSGSGTDFTLTISSLQPEDFATYYCQQGDSLPPTFGGGTKVEIK", "pKd": 8.87}
{"binder": "Clone 16C (antibody, V domains shown) VH: QVQLVQSGAEVKKPGSSVKVSCKASGGTFREYAISWVRQAPGQGLEWMGGIHPIFGTARYAQKFQGRVTITADESTSTAYMELSSLRSEDTAVYYCTRQSTWHKLYGTDVWGQGTTVTVSS VL: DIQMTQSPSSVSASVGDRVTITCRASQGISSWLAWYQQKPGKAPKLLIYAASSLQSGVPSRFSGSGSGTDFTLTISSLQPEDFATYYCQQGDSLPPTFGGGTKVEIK", "pKd": 8.37}
{"binder": "Clone 25A (antibody, V domains shown) VH: QVQLVQSGAEVKKPGASVKVSCKASGYTFTSYAISWVRQAPGQGLEWMGWISAYNGNTKYAQKLQGRVTMTTDTSTSTAYMELRSLRSDDTAVYYCARDLSSFWSGDVLGAFDIWGQGTMVTVSS VL: DIQMTQSPSSLSASVGDRVTITCRASQSISSYLNWYQQKPGKAPKLLIYAASSLQSGVPSRFSGSGSGTDFTLTISSLQPEDFATYYCQQSVPPRTFGGGTKVEIK", "pKd": 8.79}
{"binder": "Clone 25D (antibody, V domains shown) VH: QVQLVQSGAEVKKPGASVKVSCKASGYTFTSYPIGWVRQAPGQGLEWMGWISSYNGNTNYAQKLQGRVTMTTDTSTSTAYMELRSLRSDDTAVYYCARDLKSFWSGDVLGAFDIWGQGTMVTVSS VL: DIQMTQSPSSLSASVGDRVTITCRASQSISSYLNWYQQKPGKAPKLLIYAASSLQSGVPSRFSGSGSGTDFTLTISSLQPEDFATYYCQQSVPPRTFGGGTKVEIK", "pKd": 8.93}

Ask: Report measured pKd; entry is Clone 2 (antibody, V domains shown, Fully human IgG produced in yeast; also called anti-TIGIT antibody clone 2) VH: EVQLVESGGGLVQPGGSLRLSCAASGFTFSDHYMDWVRQAPGKGLEWVGRTRNKANSYTTEYAASVKGRFTISRDDSKNSLYLQMNSLKTEDTAVYYCARGQYYYGSSSRGYYYMDVWGQGTTVTVSS VL: EIVLTQSPGTLSLSPGERATLSCRASQSVSSSYLAWYQQKPGQAPRLLIYGASSRATGIPDRFSGSGSGTDFTLTISRLEPEDFAVYYCQQAVPSPLTFGGGTKVEIK
Reply: 8.87

Values were extracted from patent US20230050440A1.
